Data provenance: the nanobody polyreactivity screen of Harvey et al. (2022)

- run.description: yeast display, Sf9 membrane polyspecificity reagent, FACS + sequencing; frameworks hold sequencing errors
measured.attribute: polyreactivity (PSR sort gate)

Solved cases (4 shown):
{"columns": ["sequence.data", "polyreactivity (PSR sort gate)"],
 "data": [
  ["PVQLVESGGGLVQAGGRLRLSCAASGIIFSDYAMGWYRQAPGKERELVAAIPGGGSTYYADSVKGRFTISRDNAKNTVYLQMNSLKPEDTAVYYCNADWARLWIRSTEVDYWGQGTQVTVSS", "low polyreactivity"],
  ["QVQLVESGGGLVQAGGSLRLSCAASGRTFQRYAMGWYRQAPGKERELVAAISRGGITYYADSVKGRFTISRDNAKNTVYLQMNSLKPEDTAVYYCAALYRYYHESSPFDYWGQGTQVTVSS", "high polyreactivity"],
  ["QVQLVESGGGLVQAGGSLRLSCAASGRTFVVYAMGWYRQAPGKERELVAAISYSGGSTYYADSVKGRFTISRDNAKNTVYLQMNSLKPEDTAVYYCAAVHLGYYHIYGLGYWGQGTQVTVSS", "high polyreactivity"],
  ["QVQLVESGGGLVQAGGSLRLSCAASGSIFVGNAMGWYRPAPGKERELVAAISSSGGSTYYADSVKGRFTISRDNAKNTVYLQMNSLKPEDTAVYYCAADIFSPAFDYWGQGTQVTVSS", "low polyreactivity"]
]}

Then there is this sequence:
Please report polyreactivity (PSR sort gate) for the following sequence: QVQLVESGGRLVQAGGSLRLLCAASGLILHKYAMGWYRQAPGKERELVASINSGANTNYADSVKGRFTISRDNAKNTVYLQMNSLKPEDTAVYYCNADPGFRSGDYGYSSFDYGGQGTQVTVSS low polyreactivity

###

- run.description: yeast display, Sf9 membrane polyspecificity reagent, FACS + sequencing; frameworks hold sequencing errors
measured.attribute: polyreactivity (PSR sort gate)

Solved cases (4 shown):
{"columns": ["sequence.data", "measured.attribute", "result"],
 "data": [
  ["QVQLVETGGGLVQAGGSLRLSCAASGSTFAKYVMGWYRPAPGKERELVAAISRRGSSTYYADSEKGRFTISRDYAKNTVYLQMNSLKPEDTAVYYCAARFRYSGFEGMDYWGQGNQVTVSS", "polyreactivity (PSR sort gate)", "high polyreactivity"],
  ["QVELVESGGGLVQAGGSLRLSCAASGSTFDYNAMGWYRQAPGKERELVAAISRTANANYADSVKGRFTISRDNAKNTVYLQMNSLKPEDTSVYYCAADFRASKVHVRFCYWGQGTQVTVSS", "polyreactivity (PSR sort gate)", "low polyreactivity"],
  ["QVQLVESGGRLVEAGGSLRLSCAASGRTIPAYALGWYRQAPGKERELVAGISYRGGSTYYADSVKGRFTISRDKAKNTVYLPMNSLKPEDTAVYYCARVYSRNKGVYWGQGTQVPVSS", "polyreactivity (PSR sort gate)", "low polyreactivity"],
  ["QDQLVESGGGLVQAGGSLRLSCAASGRTFRRNAMGWYRPAPGKERELVAAITSSGGSTYYADSVKGRFTISRDNAKNTVYLQMNSLKPEDTAVYYCNAVGKPQSSQYYYWGQGTQVTVSS", "polyreactivity (PSR sort gate)", "high polyreactivity"]
]}

Then there is this sequence:
Please report polyreactivity (PSR sort gate) for the following sequence: QVQLVESGGGLVQAGGSLRLRCAASGFIFIFNAMGWYRQAPGKERELLAAIDTSDDSTYYADSVKGRFTISRDNAKNTVYLQMNSLYPEDTAVYYCAAEELSNYEYWGQGTQVSVSS low polyreactivity
